Test system: Plasmodium falciparum
Assay: Antiplasmodial activity against chloroquine-sensitive/sulfadoxine-resistant Plasmodium falciparum 3D7 by [3H]-hypoxanthine incorporation assay
Format: functional
pIC50: −log10 of the molar value.
Below, each of the compounds is paired with its reported pIC50 value.

Known pIC50 results, listed for orientation:
Smiles repr	Value observed
Cc1c(/C=N/NC(=O)c2ccncc2)[n+]([O-])c2ccccc2[n+]1[O-]	< 4.00
Cc1c(/C=N/Nc2ccccc2)[n+]([O-])c2ccccc2[n+]1[O-]	< 4.00
Cc1c(/C=N/Nc2c(Cl)cc(Cl)cc2Cl)[n+]([O-])c2cc(Cl)ccc2[n+]1[O-]	< 4.00
Cc1c(/C=N/Nc2ccnc3cc(Cl)ccc23)[n+]([O-])c2cc(Cl)ccc2[n+]1[O-]	6.62
Cc1ccc(S(=O)(=O)N/N=C/c2c(C)[n+]([O-])c3ccccc3[n+]2[O-])cc1	4.07
COc1ccc2c(c1)[n+]([O-])c(C)c(C)[n+]2[O-]	< 4.00
COc1ccc2c(c1)[n+]([O-])c(/C=N/Nc1ccnc3cc(Cl)ccc13)c(C)[n+]2[O-]	5.85
COc1ccc2c(c1)[n+]([O-])c(/C=N/Nc1c(Cl)cc(Cl)cc1Cl)c(C)[n+]2[O-]	< 4.00

// pIC50 lookup, compound = `Cc1c(/C=N/Nc2cccc(Cl)c2)[n+]([O-])c2ccccc2[n+]1[O-]` , result: < 4.00

----------
Below, each of the molecules is paired with its reported selectivity ratio value.
Assay: Selectivity index, ratio of CC50 for human HepG2A16 cells to IC50 for chloroquine/cycloguanil-resistant Plasmodium falciparum FCR3
Format: toxicity
Conditions: read-out: Ratio CC50/IC50
Write the number on its own, no unit after it.

Known selectivity ratio results, listed for orientation:
Smiles repr	Value observed
Cc1c(/C=N/NC(=O)c2ccc(Cl)cc2)[n+]([O-])c2ccccc2[n+]1[O-]	0.81
Cc1c(/C=N/NC(=O)c2ccccc2)[n+]([O-])c2ccccc2[n+]1[O-]	1.11
Cc1c(/C=N/Nc2c(Cl)cc(Cl)cc2Cl)[n+]([O-])c2cc(Cl)ccc2[n+]1[O-]	0.2

Okay, now this molecule:
// selectivity ratio lookup, molecule = `Cc1c(C(F)(F)F)[n+]([O-])c2ccccc2[n+]1[O-]` , result: 0.42

----------
Test system: Plasmodium falciparum
Test: Antiplasmodial activity against chloroquine-sensitive/sulfadoxine-resistant Plasmodium falciparum 3D7 by [3H]-hypoxanthine incorporation assay
Format: functional
Below, each of the molecules is paired with its reported IC50 value.
Numeric only. Scale: µM

Smiles repr	Value observed
Cc1c(/C=N/Nc2ccc(Cl)c(Cl)c2)[n+]([O-])c2ccccc2[n+]1[O-]	76.7

// IC50 lookup, molecule = `Cc1c(/C=N/NC(=O)c2ccccc2)[n+]([O-])c2ccccc2[n+]1[O-]` , result: 55.7

// IC50 lookup, molecule = `Cc1c(/C=N/NC(=O)c2ccc(Cl)cc2)[n+]([O-])c2ccccc2[n+]1[O-]` , result: 54.9

// IC50 lookup, molecule = `COc1ccc(C(=O)N/N=C/c2c(C)[n+]([O-])c3ccccc3[n+]2[O-])cc1` , result: 27.8

// IC50 lookup, molecule = `Cc1c(C(F)(F)F)[n+]([O-])c2ccccc2[n+]1[O-]` , result: 7.9

----------
Experiment: Cytotoxicity against human HepG2A16 cells after 48 hrs by MTT assay
Type: cell-based
Assay endpoint: CC50 at 48 h (µM)
Numeric only. Scale: µM

Smiles repr	Value observed
Cc1c(C(F)(F)F)[n+]([O-])c2ccccc2[n+]1[O-]	1.8
Cc1c(/C=N/Nc2c(Cl)cc(Cl)cc2Cl)[n+]([O-])c2cc(Cl)ccc2[n+]1[O-]	12.2

// CC50 at 48 h lookup, compound = `CC(=O)N/N=C/c1c(C)[n+]([O-])c2ccccc2[n+]1[O-]` , result: 87.2

// CC50 at 48 h lookup, compound = `Cc1c(C)[n+]([O-])c2cc(Cl)ccc2[n+]1[O-]` , result: 228

// CC50 at 48 h lookup, compound = `Cc1c(/C=N/Nc2c(Cl)cc(Cl)cc2Cl)[n+]([O-])c2ccccc2[n+]1[O-]` , result: 124

// CC50 at 48 h lookup, compound = `Cc1c(/C=N/Nc2ccc(Cl)c(Cl)c2)[n+]([O-])c2ccccc2[n+]1[O-]` , result: 551

// CC50 at 48 h lookup, compound = `Cc1c(/C=N/Nc2ccc(C(=O)O)cc2)[n+]([O-])c2ccccc2[n+]1[O-]` , result: 373

// CC50 at 48 h lookup, compound = `COc1ccc(C(=O)N/N=C/c2c(C)[n+]([O-])c3ccccc3[n+]2[O-])cc1` , result: 66.6

// CC50 at 48 h lookup, compound = `COc1ccc2c(c1)[n+]([O-])c(C)c(C)[n+]2[O-]` , result: 744

Attribution: ChEMBL document CHEMBL4007490
